tested on: OVCAR-3 ovarian; assay: NCI-60 one-dose screen, 48 h; conditions: 10 µM unless noted
About 83,000 compounds went through this panel and 20% of them were active in at least one assay; those are over-represented in the sample as a whole. The source made the active and inactive calls. The calls were made as follows: active = growth percent below 10; inactive = the rest.
Classes to choose from: active, inactive

Example cases with answers are listed next.
COc1ccc(C(O)c2cc3c(N)c(C(=O)Nc4cccc(Br)c4)sc3nc2C)cc1 (stereo not given)    active
COc1ccccc1CNc1c2ccccc2nc2ccccc12    inactive
COc1ccc(Nc2nnc(-c3ccc(OC)c(OC)c3)o2)cc1    inactive

Outcome logged for C=CC[Se]C(=O)Cc1c(C)n(C(=O)c2ccc(Cl)cc2)c2ccc(OC)cc12 in this assay:
active

Please indicate how the test categorized O=S(=O)(NCCCNc1nccc(-c2c(-c3ccc(F)c(O)c3)nc3sccn23)n1)c1ccccc1 .
inactive

* * *

system: ACHN renal; test: NCI-60 one-dose screen, 48 h; conditions: 10 µM unless noted
The panel holds about 83,000 compounds, 20% with a hit somewhere; the sample as a whole holds those more often. Activity calls are given as the source filed them. How the source made its calls: active means growth percent below 10; inactive means the rest.
Hi there, use one of these labels in your reply, thanks! yes (1) (active), no (0) (inactive)

CCn1c(SCC(=O)N/N=C(\C)c2ccc(Cl)cc2)nc2c1c(=O)n(C)c(=O)n2C    no (0)
COc1cc2ncnc(Nc3ccc(F)c(Cl)c3)c2cc1OCC(=O)N1CCN(c2ccccc2)CC1    no (0)

Can you look up the reported call for O=C1Nc2ccc(C(=O)O)cc2/C1=N/c1nnc(Sc2ccccc2)s1 for me?
no (0)

Check the results log: what was the call for O=C(c1ccccc1)c1ccc(C2CCCCC2)cc1 ?
no (0)

Recorded test outcome, item COc1cc2nc3cc([N+](=O)[O-])ccc3c(NCCNCC(C)O)c2cc1OC (stereo not given)
yes (1)

* * *

test system: HT29 colon; assay: NCI-60 one-dose screen, 48 h; details: 10 µM unless noted
About 83,000 compounds went through this panel and 20% of them were active in at least one assay; those are over-represented in the sample as a whole. Calls of active or inactive are those of the source. Rule for the calls: active = growth percent below 10; inactive = the rest.
The reply should name one outcome from True for active, False for inactive

Before answering, review these 8 worked examples.
O=C(CSC(=S)n1cnnc1)NC(=O)c1ccccc1    False
CC(=O)O[C@H]1CC2CCC3C(CC[C@@]4(C)C3C[C@H]([N+]3(C)CCCCC3)[C@@H]4OC(C)=O)[C@@]2(C)C[C@@H]1N1CCCCC1 (some centres undefined)    False
CCOC(=O)c1csc(NC(=O)COc2ccc(/C=C3\Oc4ccccc4C3=O)cc2)n1    False
N#Cc1c(-c2ccccc2)cc(-c2ccccc2)n(CCCC(=O)Nc2ccccc2N)c1=O    False
CN1C(=O)/C(=C\c2nc([P+](c3ccccc3)(c3ccccc3)c3ccccc3)c(N3CCOCC3)o2)SC1=S    False
O=S(=O)(NCCNc1nccc(-c2c(-c3ccc(F)c(O)c3)nc3sccn23)n1)c1ccc(O)cc1    False
CN1CCN(c2cc(Nc3cc(C4CC4)[nH]n3)nc(Nc3ccc(CC(=O)NCc4cccc(F)c4)cc3)n2)CC1    True
CC1(C)CC(=O)C2=C(C1)N(c1ccc(OC(F)(F)F)cc1)C(N)=C(C#N)C2c1ccc(Br)cc1F (centres undefined)    False

Pending molecule:
For O=C(Nc1ccccc1)Nc1ncnc2c1ncn2-c1ccc(Cl)cc1 , which call appears in the assay record?
False
